Where these numbers come from: the supplement of paper PMC10065799

Biological target: EPHB2 (UniProt P29323)
Sequence (P29323 whole entry, looked up): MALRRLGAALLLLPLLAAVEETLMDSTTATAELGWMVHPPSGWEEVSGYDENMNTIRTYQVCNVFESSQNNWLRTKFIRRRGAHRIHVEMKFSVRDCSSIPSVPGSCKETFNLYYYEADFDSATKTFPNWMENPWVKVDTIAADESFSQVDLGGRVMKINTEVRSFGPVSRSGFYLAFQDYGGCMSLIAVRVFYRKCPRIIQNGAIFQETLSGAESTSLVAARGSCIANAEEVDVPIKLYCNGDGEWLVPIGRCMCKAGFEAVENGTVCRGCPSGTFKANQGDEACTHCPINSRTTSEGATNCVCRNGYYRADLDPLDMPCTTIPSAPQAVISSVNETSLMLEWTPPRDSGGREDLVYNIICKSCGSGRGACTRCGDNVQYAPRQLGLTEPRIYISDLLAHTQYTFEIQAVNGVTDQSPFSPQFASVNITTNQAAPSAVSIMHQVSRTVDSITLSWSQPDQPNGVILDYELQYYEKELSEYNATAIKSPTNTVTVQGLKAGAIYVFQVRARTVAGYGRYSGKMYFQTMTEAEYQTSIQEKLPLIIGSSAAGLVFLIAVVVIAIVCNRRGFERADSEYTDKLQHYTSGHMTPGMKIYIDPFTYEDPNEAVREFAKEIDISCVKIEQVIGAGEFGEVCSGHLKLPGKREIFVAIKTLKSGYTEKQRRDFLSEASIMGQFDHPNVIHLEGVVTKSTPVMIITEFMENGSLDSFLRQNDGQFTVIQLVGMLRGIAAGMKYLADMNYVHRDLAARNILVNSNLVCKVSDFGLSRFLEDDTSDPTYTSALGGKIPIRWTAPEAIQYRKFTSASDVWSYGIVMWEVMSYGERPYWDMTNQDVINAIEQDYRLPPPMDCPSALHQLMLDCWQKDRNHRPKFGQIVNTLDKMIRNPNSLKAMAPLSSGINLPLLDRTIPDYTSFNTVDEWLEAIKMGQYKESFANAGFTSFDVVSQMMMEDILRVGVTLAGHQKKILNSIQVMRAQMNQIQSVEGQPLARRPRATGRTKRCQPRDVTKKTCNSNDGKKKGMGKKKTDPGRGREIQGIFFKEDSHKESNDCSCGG
Test: phosphorylation enrichment, bacterial display (enrichment ratio); higher = better substrate or ligand; peptides without Tyr show the background;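 also: 11-residue human phosphosite peptides and single-mutation variants displayed on the E. coli surface, counted by deep sequencing, each peptide's frequency after selection divided by its frequency in the unselected input library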;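 also: frequency after pTyr selection over input frequency; kinase dosed for 20-30% of maximal phosphorylation in three min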
Label satisfied when phosphorylation enrichment is at or above 0.6; anything below gets not satisfied.

>  <residue_codes>
TINPIHEHVGF [CHN1_Y143_Y143H_YF]

>  <answer_label>
not satisfied

$$$$
>  <residue_codes>
EGWQVYRLGTR [MISP_Y95_A99T]

>  <answer_label>
not satisfied

$$$$
>  <residue_codes>
SVSVNYGDQVQ [GRAP_Y101]

>  <answer_label>
not satisfied

$$$$
>  <residue_codes>
FADIAYNFRHR [PAH_Y166_G171R_YF]

>  <answer_label>
not satisfied

$$$$
>  <residue_codes>
GTYVIYVRFSG [FLNB_Y1687_G1691S]

>  <answer_label>
not satisfied

$$$$
>  <residue_codes>
SGETEYNPTEA [NBEAL2_Y2748]

>  <answer_label>
satisfied

$$$$
>  <residue_codes>
KFLENYLNRLL [PLD2_Y169_YF]

>  <answer_label>
satisfied

$$$$
>  <residue_codes>
AKRKGYDMRVD [NEB_Y2770]

>  <answer_label>
not satisfied

$$$$
>  <residue_codes>
HQKKPYCHTHN [NRAP_Y53_A56T]

>  <answer_label>
satisfied

$$$$
>  <residue_codes>
KKEGPYDVVVL [PARK7_Y67]

>  <answer_label>
not satisfied

$$$$
>  <residue_codes>
EKESCYILHSS [PATJ_Y783_E779K]

>  <answer_label>
not satisfied

$$$$
>  <residue_codes>
AGHEEYSAMRD [KRAS_Y64_Q61H]

>  <answer_label>
not satisfied

$$$$
>  <residue_codes>
IALSKYGRVKR [FGF6_Y186]

>  <answer_label>
not satisfied

$$$$
>  <residue_codes>
IKGNMYFENSF [EGFR_Y112_R108K_YF]

>  <answer_label>
not satisfied

$$$$
>  <residue_codes>
PTTMTYFPHFD [HBA1_Y43_K41M]

>  <answer_label>
not satisfied

$$$$
>  <residue_codes>
KLQQWYREPRS [GPI_Y17_H20P]

>  <answer_label>
satisfied

$$$$
>  <residue_codes>
ANVKWYRNGRE

>  <answer_label>
not satisfied

$$$$
>  <residue_codes>
TDHLRYFDSNK [ARAP1_Y359]

>  <answer_label>
not satisfied

$$$$
>  <residue_codes>
RRDRDYTNLPS [CSF1R_Y923_E920D]

>  <answer_label>
satisfied

$$$$
>  <residue_codes>
WHHTFYNELRV [ACTA1_Y93]

>  <answer_label>
not satisfied

$$$$
>  <residue_codes>
SVNIRYLLFPS [SERAC1_Y548]

>  <answer_label>
satisfied

$$$$
>  <residue_codes>
PSDLLYILDIQ [ITGA2B_Y845]

>  <answer_label>
satisfied

$$$$
>  <residue_codes>
TVQVAYYTVMM [SPATA17_Y83_M86V]

>  <answer_label>
satisfied

$$$$
>  <residue_codes>
QKFMAYLSQGW [HLCS_Y236_G241W]

>  <answer_label>
satisfied

$$$$
>  <residue_codes>
CGQDPCIRELG [UROS_Y19_Y19C]

>  <answer_label>
not satisfied

$$$$
>  <residue_codes>
SSREGYVSHHN [FAM83B_Y433]

>  <answer_label>
not satisfied

$$$$
>  <residue_codes>
AVLSLYASGST [ACTG2_Y144_R148S]

>  <answer_label>
satisfied

$$$$
>  <residue_codes>
ITNVLYHVVGW [GBA_Y412_L410V]

>  <answer_label>
satisfied

$$$$
